B1: Homeobox protein cut-like 2, residues 895 to 963; numbered along this chain, O14529 (parent)
chain: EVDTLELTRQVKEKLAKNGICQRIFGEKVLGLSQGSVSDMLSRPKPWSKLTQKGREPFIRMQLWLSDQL

- Variants of: B1
- ASSAY_DETAILS: abundance fitness (aPCA) (normalised: wild type 0, dead -1); higher = more abundant; growth selection in yeast, the domain comes from the species named
- SETTINGS: Homo sapiens
# class assignment by measured abundance fitness: bottom bin (below -0.2), middle bin (-0.2 to below -0.04), top bin (-0.04 or more)

- BIOSEQUENCE: "EVDTLELTRQVKEKLAKNGICQRIFGEKVLGLSRGSVSDMLSRPKPWSKLTQKGREPFIRMQLWLSDQL [Q34R]"
  CLASS_LABEL: "top bin"
- BIOSEQUENCE: "EVDTLECTRQVKEKLAKNGICQRIFGEKVLGLSQGSVSDMLSRPKPWSKLTQKGREPFIRMQLWLSDQL [L7C]"
  CLASS_LABEL: "middle bin"
- BIOSEQUENCE: "EVDTLELTRQVKEKLAKNGICQRIFGEKFLGLSQGSVSDMLSRPKPWSKLTQKGREPFIRMQLWLSDQL [V29F]"
  CLASS_LABEL: "middle bin"
- BIOSEQUENCE: "EVDTLELTRQVKEKLAKNGICQRIFGEKVLGLSQGSVSDMLSRPKPWSKLTQKGREVFIRMQLWLSDQL [P57V]"
  CLASS_LABEL: "middle bin"
- BIOSEQUENCE: "EVDTLELTRQVKEKLAKNGICQRIFEEKVLGLSQGSVSDMLSRPKPWSKLTQKGREPFIRMQLWLSDQL [G26E]"
  CLASS_LABEL: "bottom bin"
- BIOSEQUENCE: "EVDTLELTRQVKEKLAKNGICQRIFGEKVLGLSQGSVSDMLSRPKPWSKLTQKGREPFIRMQLWLHDQL [S66H]"
  CLASS_LABEL: "top bin"
- BIOSEQUENCE: "EVDTLELTRQVKEKLAKNGICQRIFGEKVLGLSQGSVSDMLSRPKPWSKLTQKGREPFIRMQLWLSSQL [D67S]"
  CLASS_LABEL: "middle bin"
- BIOSEQUENCE: "EVDTLELTRQVKEKLAKNGICQRIFGEKVLGLSQGSVSDQLSRPKPWSKLTQKGREPFIRMQLWLSDQL [M40Q]"
  CLASS_LABEL: "bottom bin"
- BIOSEQUENCE: "EVDTVELTRQVKEKLAKNGICQRIFGEKVLGLSQGSVSDMLSRPKPWSKLTQKGREPFIRMQLWLSDQL [L5V]"
  CLASS_LABEL: "top bin"
- BIOSEQUENCE: "EVDTLELTRQVKFKLAKNGICQRIFGEKVLGLSQGSVSDMLSRPKPWSKLTQKGREPFIRMQLWLSDQL [E13F]"
  CLASS_LABEL: "middle bin"
- BIOSEQUENCE: "EVDTLELTRQVKEKLAKNGICQAIFGEKVLGLSQGSVSDMLSRPKPWSKLTQKGREPFIRMQLWLSDQL [R23A]"
  CLASS_LABEL: "middle bin"
- BIOSEQUENCE: "EVDTNELTRQVKEKLAKNGICQRIFGEKVLGLSQGSVSDMLSRPKPWSKLTQKGREPFIRMQLWLSDQL [L5N]"
  CLASS_LABEL: "top bin"
- BIOSEQUENCE: "EVDTLELTRQVKEKLALNGICQRIFGEKVLGLSQGSVSDMLSRPKPWSKLTQKGREPFIRMQLWLSDQL [K17L]"
  CLASS_LABEL: "middle bin"
- BIOSEQUENCE: "EVDTLELTRQVKEKLAKNGICQRIFGEKVLGLSQGSVSDMLSRPLPWSKLTQKGREPFIRMQLWLSDQL [K45L]"
  CLASS_LABEL: "top bin"
- BIOSEQUENCE: "EVDTLELTRQVKEKLAKNGICQRIFGEKVLGLSQGSVSDMLHRPKPWSKLTQKGREPFIRMQLWLSDQL [S42H]"
  CLASS_LABEL: "top bin"
- BIOSEQUENCE: "EVDTLELTRQVKEKLAKNGICQRIFGEKVLGLMQGSVSDMLSRPKPWSKLTQKGREPFIRMQLWLSDQL [S33M]"
  CLASS_LABEL: "top bin"
- BIOSEQUENCE: "EVDTLELTRQVKEKLAKNGICQRIFGEKVLGLSQGSVSDMLSRPKPWSKLTKKGREPFIRMQLWLSDQL [Q52K]"
  CLASS_LABEL: "top bin"
- BIOSEQUENCE: "EVDTLELTRQVKEKLAKNGICQRIFGEKVLGLSQGSVSDMLSRPKPWSKLTQKGFEPFIRMQLWLSDQL [R55F]"
  CLASS_LABEL: "bottom bin"
- BIOSEQUENCE: "EVDTLELTRQVKEKLAKNGICLRIFGEKVLGLSQGSVSDMLSRPKPWSKLTQKGREPFIRMQLWLSDQL [Q22L]"
  CLASS_LABEL: "top bin"
- BIOSEQUENCE: "EVDTLELTRQVKEKLAKNGICQRIFGEKVLGLSQGSVSDVLSRPKPWSKLTQKGREPFIRMQLWLSDQL [M40V]"
  CLASS_LABEL: "middle bin"
- BIOSEQUENCE: "EVDTLELTRQVKEKLAKNGIHQRIFGEKVLGLSQGSVSDMLSRPKPWSKLTQKGREPFIRMQLWLSDQL [C21H]"
  CLASS_LABEL: "top bin"
- BIOSEQUENCE: "EVDTLELTRQVKEKLAKNGICQRIFGEKVLGLSQGSVSDMLSRPKPWSKLTQKGREPFIRMQLWLCDQL [S66C]"
  CLASS_LABEL: "middle bin"
- BIOSEQUENCE: "EVDTLELTRQVKEKLAKNGICQRIFGEKVLGLSQGSVSDMLSRPTPWSKLTQKGREPFIRMQLWLSDQL [K45T]"
  CLASS_LABEL: "middle bin"
- BIOSEQUENCE: "EVDTLELTRQVKEKLAKNGICQRIFGEKVLGLSQGRVSDMLSRPKPWSKLTQKGREPFIRMQLWLSDQL [S36R]"
  CLASS_LABEL: "middle bin"
- BIOSEQUENCE: "EVDTLELTRQVKEKLAKNGIIQRIFGEKVLGLSQGSVSDMLSRPKPWSKLTQKGREPFIRMQLWLSDQL [C21I]"
  CLASS_LABEL: "middle bin"
- BIOSEQUENCE: "EVDTLELTRQVKEKLAKNGICQRIFGEKVLGLSQGSVSDMLSRPKPNSKLTQKGREPFIRMQLWLSDQL [W47N]"
  CLASS_LABEL: "bottom bin"
- BIOSEQUENCE: "EVDTLELTRQVKEKLAKNGICQRIFGEKVLGLSQGSVSDMLSRPKPWSKLTQKGREPFIWMQLWLSDQL [R60W]"
  CLASS_LABEL: "bottom bin"
- BIOSEQUENCE: "EVDTLELTRQVKEKLAKNGICQRIFGEKVLGLSQGSVSDMLSRPKPWSKLTQKDREPFIRMQLWLSDQL [G54D]"
  CLASS_LABEL: "top bin"
- BIOSEQUENCE: "EVDTLELTRQVKEKLAKNGICQRIFGEKVLGLSQGSVSDMLSRPKPWSKLTQKGREPFIRMQLWLSDQC [L69C]"
  CLASS_LABEL: "middle bin"
- BIOSEQUENCE: "EVDTLELTRQVKEKLAKNGICQRIFGEKVLGLSQGSVSDMLSRFKPWSKLTQKGREPFIRMQLWLSDQL [P44F]"
  CLASS_LABEL: "middle bin"
- BIOSEQUENCE: "EVDTLELTRQVKEKLAKNGICQRIFGEKVLGLSQGSVSDMLSRPKPWSKLTQKGREPFIRMQLWLSWQL [D67W]"
  CLASS_LABEL: "bottom bin"
- BIOSEQUENCE: "EVDTLELTRQVKEKLAKNGICQRIFGEKVLGLSQGSVSDMLSRPKPWSKLHQKGREPFIRMQLWLSDQL [T51H]"
  CLASS_LABEL: "bottom bin"
- BIOSEQUENCE: "EVDTLELTRQVKEKLAKNGICQRIFGEKVLGLSQGSVSDMLSRPKPWSKLTQKGREPFIRYQLWLSDQL [M61Y]"
  CLASS_LABEL: "bottom bin"
- BIOSEQUENCE: "EVDTLELTRQVKEKLAKNGICQRIFGEKVLGLSQGSVSDMLSRPCPWSKLTQKGREPFIRMQLWLSDQL [K45C]"
  CLASS_LABEL: "bottom bin"
- BIOSEQUENCE: "EVDTLELTRQVKEKLAKNGICQRIFGEKVLGLSQGSVSDMLSRPKPWSKLTQKGREPFIRMQLWLSDQM [L69M]"
  CLASS_LABEL: "top bin"
- BIOSEQUENCE: "EVDTLELTRVVKEKLAKNGICQRIFGEKVLGLSQGSVSDMLSRPKPWSKLTQKGREPFIRMQLWLSDQL [Q10V]"
  CLASS_LABEL: "middle bin"
- BIOSEQUENCE: "EVDTLELTRQVKEKLAKNGICQRIFGEKVLGLSQGSVSDMLSRPKPWSKLTQRGREPFIRMQLWLSDQL [K53R]"
  CLASS_LABEL: "middle bin"
- BIOSEQUENCE: "EVDTLELTRQVKEKLAKNGICQRIFGEKVLGLSQGSVSDMLSRPKPWSKLTQKGREPFIRMQLWLSAQL [D67A]"
  CLASS_LABEL: "bottom bin"
- BIOSEQUENCE: "EVDTLELTRQVKEKLAKNGICQRIFGEKVLGLSQGSVSDMLSRPKPWSKLTWKGREPFIRMQLWLSDQL [Q52W]"
  CLASS_LABEL: "middle bin"
- BIOSEQUENCE: "EVDTLELTRQVKEKLAKNGICQRIFGEVVLGLSQGSVSDMLSRPKPWSKLTQKGREPFIRMQLWLSDQL [K28V]"
  CLASS_LABEL: "middle bin"
- BIOSEQUENCE: "EVDTLELTRQVKEKMAKNGICQRIFGEKVLGLSQGSVSDMLSRPKPWSKLTQKGREPFIRMQLWLSDQL [L15M]"
  CLASS_LABEL: "top bin"
- BIOSEQUENCE: "EVDTLELTRQVKEKLAKNGICQRIFGEKVLGLSQGSVSDMLSRPKPWSKLTQKGNEPFIRMQLWLSDQL [R55N]"
  CLASS_LABEL: "bottom bin"
- BIOSEQUENCE: "EVDTLELTAQVKEKLAKNGICQRIFGEKVLGLSQGSVSDMLSRPKPWSKLTQKGREPFIRMQLWLSDQL [R9A]"
  CLASS_LABEL: "middle bin"
